B1: TSN (parent)
chain: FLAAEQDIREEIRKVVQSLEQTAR

Variants of: B1
Assay: protein stability index of a GFP-peptide fusion (GPS, HEK-293T) (PSI 1-6); higher = more stable;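 further: lentivirally expressed fusions sorted by FACS into six bins by GFP to DsRed ratio, PSI derived from sequencing read proportions per bin multiplied by bin number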
Conditions: c terminus: a fixed tail appended
parameter: protein stability index
Reply briefly: the number, and no unit.

Note to self: protein stability index recorded for "I8Y" was 2.42

Note to self: protein stability index recorded for "S18L" was 2.22

Note to self: protein stability index recorded for "A3L" was 2.33

Note to self: protein stability index recorded for "D7V" was 2.13

Note to self: protein stability index recorded for "Q6L" was 1.99

Note to self: protein stability index recorded for "F1C" was 1.9

Note to self: protein stability index recorded for "F1P" was 2.78

Note to self: protein stability index recorded for "Q17H" was 1.98

Note to self: protein stability index recorded for "E20V" was 2.29

Note to self: protein stability index recorded for "V16Q" was 2.35

Note to self: protein stability index recorded for "E10H" was 2.5

Note to self: protein stability index recorded for "A4G" was 2.04

Note to self: protein stability index recorded for "R9H" was 1.49

Note to self: protein stability index recorded for "Q17F" was 1.58

Note to self: protein stability index recorded for "R24L" was 2.49

Note to self: protein stability index recorded for "E5N" was 3.04

Note to self: protein stability index recorded for "L2I" was 1.66

Note to self: protein stability index recorded for "E20W" was 2.64

Note to self: protein stability index recorded for "E20Q" was 2.35

Note to self: protein stability index recorded for "I12V" was 2.1

Note to self: protein stability index recorded for "A4M" was 1.69

Note to self: protein stability index recorded for "I12N" was 4.68
